TARGET_UNDER_TEST: recombinant human Nav1.7 (Homo sapiens (Human))
ASSAY_METHOD_TEXT: FRET-based membrane potential assay, recombinant human sodium channel Nav1.7
Format: cell-based
TEST_SETTINGS: read-out: FRET-Membrane Potential Nav1.7 IC50
pIC50: −log10 of the molar value.
Could you label it yes (1) if measured pIC50 is 5 or higher, and no (0) otherwise?

Illustrative cases are given below, each with its answer.
> print(dat)
                                   compound                         target.under.test  qualitative.label
1  N#CC1CN(C(=O)c2ccc3cc(Oc4ccc(C(F)(F)F)cn4)ccc3n2)CCN1 (centres unmarked)  recombinant human Nav1.7 (Homo sapiens (Human))            yes (1)
2  N#Cc1ccc(Oc2ccc3nc(C(=O)N[C@H]4CCC[C@@H]4O)ccc3c2)cc1  recombinant human Nav1.7 (Homo sapiens (Human))            yes (1)
3    O=C(Nc1ncns1)c1ccc2cc(Oc3ccccn3)ccc2n1  recombinant human Nav1.7 (Homo sapiens (Human))             no (0)

Q. Does the reported pIC50 for O=C(c1ccc2cc(Oc3ccc(C(F)(F)F)cn3)ccc2n1)N1CCCC1c1ccc(C(F)(F)F)cc1 (centres unmarked) fall at or above the 5 mark?
A. no (0)

Q. Does the reported pIC50 for `O=C(c1ccc2cc(Oc3cccc(C(F)(F)F)n3)ccc2n1)N1CCNCC1` fall at or above the 5 mark?
A. yes (1)

Q. Does the reported pIC50 for `N#Cc1ccc(Oc2ccc3nc(C(=O)NC4(CO)CC4)ccc3c2)cc1` fall at or above the 5 mark?
A. yes (1)

Q. Does the reported pIC50 for `O=C(c1ccc2cc(Oc3ccc(C(F)(F)F)cn3)ccc2n1)N1CCC(O)CC1` fall at or above the 5 mark?
A. no (0)

Q. Does the reported pIC50 for `O=C(NCC(=O)N1CC(O)C1)c1ccc2cc(Oc3ccc(C(F)(F)F)cn3)ccc2n1` fall at or above the 5 mark?
A. yes (1)

====

Task for the reader: assign each of the following compounds its reported IC50.
TARGET_UNDER_TEST: recombinant human Nav1.7 (Homo sapiens (Human), UniProt Q15858)
Sequence (Q15858 whole entry): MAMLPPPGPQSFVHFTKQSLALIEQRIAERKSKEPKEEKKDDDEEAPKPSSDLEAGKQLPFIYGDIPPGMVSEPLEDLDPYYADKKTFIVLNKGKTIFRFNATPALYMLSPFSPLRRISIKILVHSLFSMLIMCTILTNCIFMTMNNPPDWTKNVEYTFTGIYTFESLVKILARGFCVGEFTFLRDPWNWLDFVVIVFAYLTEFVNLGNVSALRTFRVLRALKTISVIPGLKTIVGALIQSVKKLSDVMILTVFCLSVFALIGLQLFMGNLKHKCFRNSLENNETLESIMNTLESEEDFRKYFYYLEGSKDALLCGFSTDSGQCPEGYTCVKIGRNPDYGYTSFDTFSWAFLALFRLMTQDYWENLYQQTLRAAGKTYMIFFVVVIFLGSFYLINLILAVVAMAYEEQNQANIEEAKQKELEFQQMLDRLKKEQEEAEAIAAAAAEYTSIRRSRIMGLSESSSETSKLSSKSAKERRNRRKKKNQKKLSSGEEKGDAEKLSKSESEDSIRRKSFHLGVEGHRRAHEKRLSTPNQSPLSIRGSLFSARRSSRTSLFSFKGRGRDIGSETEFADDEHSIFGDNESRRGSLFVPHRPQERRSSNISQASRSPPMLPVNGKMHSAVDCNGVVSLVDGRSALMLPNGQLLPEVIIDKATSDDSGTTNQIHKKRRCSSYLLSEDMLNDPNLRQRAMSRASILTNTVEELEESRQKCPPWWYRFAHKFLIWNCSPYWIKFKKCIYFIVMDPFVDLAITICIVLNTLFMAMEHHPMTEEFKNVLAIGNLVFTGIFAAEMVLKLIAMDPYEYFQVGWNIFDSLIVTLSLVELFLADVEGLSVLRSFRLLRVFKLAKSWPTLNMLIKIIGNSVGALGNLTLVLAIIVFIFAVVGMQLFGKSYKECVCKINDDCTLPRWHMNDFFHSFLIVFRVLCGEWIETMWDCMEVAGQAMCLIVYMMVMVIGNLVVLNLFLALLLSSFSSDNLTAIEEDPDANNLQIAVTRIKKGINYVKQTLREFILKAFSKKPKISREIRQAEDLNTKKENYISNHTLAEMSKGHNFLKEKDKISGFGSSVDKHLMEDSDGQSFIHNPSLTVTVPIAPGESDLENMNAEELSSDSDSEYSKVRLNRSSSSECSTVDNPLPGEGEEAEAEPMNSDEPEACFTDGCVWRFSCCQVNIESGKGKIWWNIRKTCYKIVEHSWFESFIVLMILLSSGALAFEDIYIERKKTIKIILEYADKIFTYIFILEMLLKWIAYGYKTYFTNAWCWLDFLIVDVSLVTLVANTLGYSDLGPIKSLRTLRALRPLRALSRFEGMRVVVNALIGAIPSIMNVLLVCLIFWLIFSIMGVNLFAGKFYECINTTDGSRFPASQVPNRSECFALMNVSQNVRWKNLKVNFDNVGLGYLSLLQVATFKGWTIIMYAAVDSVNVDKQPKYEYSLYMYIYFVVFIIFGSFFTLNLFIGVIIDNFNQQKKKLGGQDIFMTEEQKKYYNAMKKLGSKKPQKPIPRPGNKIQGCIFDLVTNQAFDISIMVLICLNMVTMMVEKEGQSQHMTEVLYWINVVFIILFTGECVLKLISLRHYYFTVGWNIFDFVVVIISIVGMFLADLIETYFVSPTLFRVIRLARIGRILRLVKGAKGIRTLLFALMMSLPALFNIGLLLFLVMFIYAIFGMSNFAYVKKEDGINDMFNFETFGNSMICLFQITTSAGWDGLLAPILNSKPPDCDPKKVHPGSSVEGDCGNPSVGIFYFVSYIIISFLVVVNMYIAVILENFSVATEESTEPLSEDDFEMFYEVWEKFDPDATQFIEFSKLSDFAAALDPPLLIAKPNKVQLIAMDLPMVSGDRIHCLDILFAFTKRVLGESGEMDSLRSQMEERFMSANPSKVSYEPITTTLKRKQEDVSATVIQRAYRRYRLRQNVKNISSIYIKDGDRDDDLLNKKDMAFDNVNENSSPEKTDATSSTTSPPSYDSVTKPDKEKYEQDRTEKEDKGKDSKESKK
ASSAY_METHOD_TEXT: FRET-based membrane potential assay, recombinant human sodium channel Nav1.7
Format: cell-based
TEST_SETTINGS: read-out: FRET-Membrane Potential Nav1.7 IC50
Description: FRET-Based Membrane Potential Assays. Recombinant, Human Sodium Channel, Nav1.7. On the day of the assay, medium was removed by aspiration, and cells were washed with assay buffer [HBSS (Invitrogen, Carlsbad, Calif.) containing 20 mM HEPES (Invitrogen, Carlsbad, Calif.)]. […] Cells were incubated for 40 minutes at room temperature in the dark. […] Fluorescence readings were made using a FLIPR®^TETRA (Molecular Devices, Sunnyvale Calif.) equipped with voltage-sensor probe optics. […]
Numbers only, in nM.

Reference set (10 entries):
> print(dat)
                                    compound  value.measured
 1  O=C(c1ccc2cc(Oc3ncc(C(F)(F)F)cc3F)ccc2n1)N1CCNCC1            1390
 2  O=C(NC1COC1)c1ccc2cc(Oc3ccc(C(F)F)cn3)ccc2n1            1960
 3  N#Cc1ccc(Oc2ccc3nc(C(=O)N4CCNCC4)ccc3c2)cc1            1480
 4  O=C(c1ccc2cc(Oc3ccc(C(F)F)cn3)ccc2n1)N1CCN2CC(F)(F)C[C@H]2C1           14500
 5  COCC1(C)CN(C(=O)c2ccc3cc(Oc4ccc(C(F)(F)F)cn4)ccc3n2)C1            2550
 6  CCOCC1(F)CCN(C(=O)c2ccc3cc(Oc4ccc(C(F)(F)F)cn4)ccc3n2)C1 (stereo not shown)             526
 7  O=C(N[C@H]1CS(=O)(=O)C[C@H]1O)c1ccc2cc(Oc3ccc(C(F)(F)F)cn3)ccc2n1            1990
 8  O=C(NCC(=O)N1CC[C@H](O)C1)c1ccc2cc(Oc3ccc(C(F)(F)F)cn3)ccc2n1            2870
 9  O=C(c1ccc2cc(Oc3ncc(C(F)(F)F)cn3)ccc2n1)N1CCNCC1           13300
10  O=C(c1ccc2cc(Oc3ccc(C(F)(F)F)cn3)ccc2n1)N1CCN(C2CCC2)CC1            1420

// batch mode: one IC50 value per listed entry
1. O=C(c1ccc2cc(Oc3ccc(C(F)(F)F)cn3)ccc2n1)N1CC(N2CC[C@@H](F)C2)C1
2. CNC(=O)C1CN(C(=O)c2ccc3cc(Oc4ccc(C(F)(F)F)cn4)ccc3n2)CCN1 (stereo not shown)
3. CS(=O)(=O)CCCNC(=O)c1ccc2cc(Oc3ccc(C(F)(F)F)cn3)ccc2n1
4. O=C(N[C@@H]1CC[C@@H]2CN(Cc3ccccc3)C[C@@H]21)c1ccc2cc(Oc3ccc(C(F)(F)F)cn3)ccc2n1

A.
1. 1250
2. 12000
3. 2250
4. 2060

Measured IC50, `N#Cc1ccc(Oc2ccc3nc(C(=O)N[C@@H]4CCCC[C@@H]4O)ccc3c2)cc1` : 819
